system: NCI-H460 lung
Possible outcomes: active, inactive

>>> df
                                   compound  category_label
0  CCCCCCCCCCC(CN(CC)CC)C(O)c1ccccc1 (centres undefined)        inactive
1  C=C(CN(CCN1CCOCC1)CC(=C)c1ccc(C(=O)Nc2ccccc2N)cc1)c1ccc(C(=O)Nc2ccccc2N)cc1        inactive
2  NCCCn1c2c(c3ccc([N+](=O)[O-])cc3c1=O)C(=O)c1cc(Cl)ccc1-2          active
3  O=C1C(Nc2cccc(O)c2)=C(Sc2ccc(Cl)cc2)C(=O)N1Cc1ccccc1        inactive
4  CC(=O)[CH-]C(=O)c1ccccc1.CC(=O)[CH-]C(=O)c1ccccc1.CC[O-].O=C1C=C([O-])C(=O)c2ccccc21.[Ti+4]        inactive
5  Cc1cc(Cl)ccc1Nc1nc(C(F)(F)F)ccc1C(=O)N/N=C/c1ccc(N(C)C)cc1        inactive
6  CCNC(=O)CCCCC(=O)c1c(C)[nH]c(/C=C2\N=C(c3ccc[nH]3)C=C2OC)c1C        inactive
7  COc1ccc(Cn2c3c(c4c(O)cccc42)C(=O)c2ccccc2-3)cc1        inactive
8  Clc1ccc2c(NCCN3CCN(c4ccnc(N5CCCC5)n4)CC3)ccnc2c1        inactive
